Known IC50 of a selection of compounds
target: Bifunctional 3'-5' exonuclease/ATP-dependent helicase WRN [480-1251] (UniProt Q14191); construct: 480-1251; assay: Biochemical Activity Assays
Sequence (Q14191 480-1251): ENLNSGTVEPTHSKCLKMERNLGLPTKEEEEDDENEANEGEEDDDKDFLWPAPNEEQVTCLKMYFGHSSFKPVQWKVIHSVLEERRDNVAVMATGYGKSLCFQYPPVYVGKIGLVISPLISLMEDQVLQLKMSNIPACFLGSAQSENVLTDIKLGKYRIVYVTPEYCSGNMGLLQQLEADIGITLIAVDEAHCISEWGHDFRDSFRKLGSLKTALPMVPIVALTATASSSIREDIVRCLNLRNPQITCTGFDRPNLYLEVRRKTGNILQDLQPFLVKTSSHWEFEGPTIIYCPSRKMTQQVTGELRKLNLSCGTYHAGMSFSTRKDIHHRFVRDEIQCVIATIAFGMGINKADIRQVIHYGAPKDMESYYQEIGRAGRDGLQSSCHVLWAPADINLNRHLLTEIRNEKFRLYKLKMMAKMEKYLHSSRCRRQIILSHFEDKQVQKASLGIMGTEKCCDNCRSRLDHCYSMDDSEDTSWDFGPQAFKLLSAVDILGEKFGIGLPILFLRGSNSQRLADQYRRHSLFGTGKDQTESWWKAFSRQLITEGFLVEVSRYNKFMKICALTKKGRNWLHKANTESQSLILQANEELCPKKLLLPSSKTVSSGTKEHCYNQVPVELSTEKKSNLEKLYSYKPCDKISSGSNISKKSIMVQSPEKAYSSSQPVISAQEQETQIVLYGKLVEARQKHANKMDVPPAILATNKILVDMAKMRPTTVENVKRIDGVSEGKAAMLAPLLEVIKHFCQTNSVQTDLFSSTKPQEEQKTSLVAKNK
Value expressed in nM; do not type the unit.

CCc1c(N2CCN(C(=O)c3ncnc(C)c3O)CC2)c(=O)n2nc(-c3cc4ccnn4cc3C)nc2n1CC(=O)Nc1ccc(C(F)(F)F)cc1Cl	34
CCc1c(N2CCN(C(=O)c3ncnc(C)c3O)CC2)c(=O)n2nc(N3CCC3)nc2n1CC(=O)Nc1ccc(C(F)(F)F)c2c1CC2	32

# value of IC50, Bifunctional 3'-5' exonuclease/ATP-dependent helicase WRN [480-1251] (UniProt Q14191), item CCc1c(N2CCN(C(=O)c3ccccc3NC(=O)c3ccn[nH]3)CC2)c(=O)n2nc(C3=CCOCC3)nc2n1CC(=O)Nc1ccc(C(F)(F)F)cc1Cl = 62.2

---

Consider the following compounds and their measured pIC50 readings.
biological target: Bifunctional 3'-5' exonuclease/ATP-dependent helicase WRN [480-1251] (UniProt Q14191); construct: 480-1251; experiment: Biochemical Activity Assays
Kindly note that pIC50 refers to -log10 of the concentration in mol/L and answer with the value alone.

# annotated cases, reported pIC50 shown
CCc1c(N2CCN(C(=O)c3ncnc(C)c3O)CC2)c(=O)n2nc(-c3ccn4ncc(F)c4c3)nc2n1CC(=O)Nc1ccc(C(F)(F)F)cc1Cl [WO2025049746, Example 326]	7.59
CCc1c(N2CCN(C(=O)c3nc4n(c(=O)c3O)CCOC4)CC2)c(=O)n2nc(-c3ccc4c(c3)OCO4)nc2n1CC(=O)Nc1ccc(C(F)(F)F)cc1Cl [WO2025049746, Example 86]	7.67
CCc1c(N2CCN(C(=O)c3ncnc(C)c3O)CC2)c(=O)n2nc(C3=CCOCC3)nc2n1CC(=O)NC1CC2C(C1)C2(F)F (stereo unspecified) [WO2025049746, Example 350]	5.22
CCc1c(N2CCN(C(=O)c3ncnc(C)c3O)CC2)c(=O)n2nc(-c3ccc4c(c3)OCC4)nc2n1CC(=O)Nc1ccc(C(F)(F)F)cc1Cl [WO2025049746, Example 12]	7.55
CCc1c(N2CCN(C(=O)c3ncnc(C)c3O)CC2)c(=O)n2nc(-c3cccc4c3cnn4C)nc2n1CC(=O)Nc1ccc(C(F)(F)F)cc1Cl [WO2025049746, Example 22]	7.53

Fill in: Bifunctional 3'-5' exonuclease/ATP-dependent helicase WRN [480-1251] (UniProt Q14191) pIC50 for CCc1c(N2CCN(C(=O)c3ncnc(C)c3O)CC2)c(=O)n2nc(-c3cc(F)c4c(c3)CCO4)nc2n1CC(=O)Nc1ccc(C(F)(F)F)cc1Cl [WO2025049746, Example 173] = 7.55

Entry CCc1c(N2CCN(C(=O)c3ncnc(C)c3O)CC2)c(=O)n2nc(-c3ccc4c(c3)CCC4(F)F)nc2n1CC(=O)Nc1ccc(C(F)(F)F)cc1Cl [WO2025049746, Example 187] , tested on Bifunctional 3'-5' exonuclease/ATP-dependent helicase WRN [480-1251] (UniProt Q14191), has a reported pIC50 of 7.12

Assay Bifunctional 3'-5' exonuclease/ATP-dependent helicase WRN [480-1251] (UniProt Q14191), sample CCCn1cc2cc(-c3nc4n(CC(=O)Nc5ccc(C(F)(F)F)cc5Cl)c(CC)c(N5CCN(C(=O)c6ncnc(C)c6O)CC5)c(=O)n4n3)ccc2n1 [WO2025049746, Example 302] , pIC50 read: 7.46

GET /values?item= CCc1c(N2CCN(C(=O)c3ncnc(C)c3O)CC2)c(=O)n2nc(-c3ccc4c(c3)C[C@@H](C)O4)nc2n1CC(=O)Nc1ccc(C(F)(F)F)cc1Cl [WO2025049746, Example 231] &system= Bifunctional 3'-5' exonuclease/ATP-dependent helicase WRN [480-1251] (UniProt Q14191) returns pIC50: 7.31

// compound CCc1c(N2CCN(C(=O)c3ncnc(C)c3O)CC2)c(=O)n2nc(-c3ccc4nc(C)cn4c3)nc2n1CC(=O)Nc1ccc(C(F)(F)F)cc1Cl [WO2025049746, Example 255] , assay Bifunctional 3'-5' exonuclease/ATP-dependent helicase WRN [480-1251] (UniProt Q14191), pIC50 value: 7.62

Considering CCc1c(N2CCN(C(=O)c3ncnc(C)c3O)CC2)c(=O)n2nc(-c3ccc4c(c3)N(C)C(=O)CO4)nc2n1CC(=O)Nc1ccc(C(F)(F)F)cc1Cl [WO2025049746, Example 198] , its pIC50 with Bifunctional 3'-5' exonuclease/ATP-dependent helicase WRN [480-1251] (UniProt Q14191) was recorded as 7.48

---

molecular target: Bifunctional 3'-5' exonuclease/ATP-dependent helicase WRN (Homo sapiens, UniProt Q14191); experiment: ADP-Glo Kinase Assay
Sequence (Q14191 whole entry): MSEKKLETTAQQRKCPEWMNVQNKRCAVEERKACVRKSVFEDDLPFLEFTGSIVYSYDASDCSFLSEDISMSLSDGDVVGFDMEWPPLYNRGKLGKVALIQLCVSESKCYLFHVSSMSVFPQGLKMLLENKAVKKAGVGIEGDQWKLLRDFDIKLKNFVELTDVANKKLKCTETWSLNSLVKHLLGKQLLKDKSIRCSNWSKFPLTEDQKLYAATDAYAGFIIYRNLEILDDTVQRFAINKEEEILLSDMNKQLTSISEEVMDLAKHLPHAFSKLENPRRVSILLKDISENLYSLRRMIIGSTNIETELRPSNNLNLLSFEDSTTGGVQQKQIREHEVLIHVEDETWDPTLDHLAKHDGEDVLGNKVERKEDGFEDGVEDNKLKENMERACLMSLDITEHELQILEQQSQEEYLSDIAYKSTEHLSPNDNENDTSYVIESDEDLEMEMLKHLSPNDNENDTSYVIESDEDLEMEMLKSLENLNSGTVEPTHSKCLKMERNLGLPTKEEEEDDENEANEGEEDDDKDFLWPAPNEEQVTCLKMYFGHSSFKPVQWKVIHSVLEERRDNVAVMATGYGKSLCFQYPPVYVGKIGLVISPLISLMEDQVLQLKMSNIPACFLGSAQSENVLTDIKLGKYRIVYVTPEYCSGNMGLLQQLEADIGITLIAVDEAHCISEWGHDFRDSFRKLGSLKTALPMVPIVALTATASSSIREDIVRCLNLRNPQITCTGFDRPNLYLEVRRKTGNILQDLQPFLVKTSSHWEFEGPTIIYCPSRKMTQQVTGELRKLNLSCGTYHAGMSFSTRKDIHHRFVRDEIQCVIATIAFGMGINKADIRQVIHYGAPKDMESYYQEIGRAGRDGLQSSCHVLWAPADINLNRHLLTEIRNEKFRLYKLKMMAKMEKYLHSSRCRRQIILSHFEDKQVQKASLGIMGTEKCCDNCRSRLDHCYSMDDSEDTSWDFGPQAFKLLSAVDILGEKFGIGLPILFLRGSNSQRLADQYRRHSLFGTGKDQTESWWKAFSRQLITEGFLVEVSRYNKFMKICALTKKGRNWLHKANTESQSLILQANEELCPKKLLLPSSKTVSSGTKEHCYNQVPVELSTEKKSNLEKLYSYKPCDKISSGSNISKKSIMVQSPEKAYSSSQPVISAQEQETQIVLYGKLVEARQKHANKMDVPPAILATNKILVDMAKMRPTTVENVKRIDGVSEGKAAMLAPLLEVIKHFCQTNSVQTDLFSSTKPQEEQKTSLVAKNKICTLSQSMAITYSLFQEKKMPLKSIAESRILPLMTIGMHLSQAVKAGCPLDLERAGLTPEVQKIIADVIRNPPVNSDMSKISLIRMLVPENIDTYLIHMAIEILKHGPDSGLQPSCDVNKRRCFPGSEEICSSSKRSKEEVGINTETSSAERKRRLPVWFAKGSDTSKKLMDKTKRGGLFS
pIC50: −log10 of the molar value.
Please use Fulfilled whenever pIC50 is not below 7, and Not fulfilled whenever it is.

Reference set (8 entries):
CCc1c(N2CCN(C(C)=O)CC2)c(=O)n2nc(-c3ccc4c(c3)OCO4)nc2n1CC(=O)Nc1ccc(C(F)(F)F)cc1Cl [WO2025049746, Example 89]	Not fulfilled
CCc1c(N2CCN(C(C)=O)CC2)c(=O)n2nc(C3=CCOCC3)nc2n1CC(=O)Nc1ccc(C(F)(F)F)cc1Cl [WO2025049746, Example 52]	Fulfilled
CCc1c(N2CCN(C(=O)c3ncnc(C)c3O)CC2)c(=O)n2nc(C3=CCOCC3)nc2n1CC(=O)NC1CC2C(C1)C2(F)F (stereo unspecified) [WO2025049746, Example 350]	Not fulfilled
CCc1c(N2CCN(C(=O)c3ncnc(C)c3O)CC2)c(=O)n2nc(-c3ccc4nc(C)ccc4c3)nc2n1CC(=O)Nc1ccc(C(F)(F)F)cc1Cl [WO2025049746, Example 323]	Fulfilled
CCc1c(N2CCN(C(=O)c3ncnc(C)c3O)CC2)c(=O)n2nc(-c3cc(C)n4nccc4c3)nc2n1CC(=O)Nc1ccc(C(F)(F)F)cc1Cl [WO2025049746, Example 240]	Fulfilled
CCc1c(N2CCN(C(=O)c3ncnc(C)c3O)CC2)c(=O)n2nc(C3CC3)nc2n1CC(=O)Nc1ccc(C(F)(F)F)cc1C [WO2025049746, Example 78]	Not fulfilled
CCc1c(N2CCN(C(=O)c3ncnc(C)c3O)CC2)c(=O)n2nc(-c3ccc4c(c3)CC(=O)N4C)nc2n1CC(=O)Nc1ccc(C(F)(F)F)cc1Cl [WO2025049746, Example 271]	Fulfilled
CCc1c(N2CCN(C(=O)c3nc4n(c(=O)c3O)CCOC4)CC2)c(=O)n2nc(-c3ccc4c(c3)OCO4)nc2n1CC(=O)Nc1ccc(C(F)(F)F)cc1Cl [WO2025049746, Example 86]	Fulfilled

Let us examine a further case.
**Query** pIC50 >= 7 for CCc1c(N2CCN(C(=O)c3ncnc(C)c3O)CC2)c(=O)n2nc(C3=CCOCC3)nc2n1CC(=O)Nc1ccc(SC(F)(F)F)cc1Cl [WO2025049746, Example 364] ?
**Result** Fulfilled

---

target: Bifunctional 3'-5' exonuclease/ATP-dependent helicase WRN [480-1251] (UniProt Q14191); construct: 480-1251; experiment: Biochemical Activity Assays
outcome_measure: pIC50
To interpret pIC50, take it as minus log10 of a concentration measured in moles per litre.

CCc1c(N2CCN(C(=O)c3ncnc(C)c3O)CC2)c(=O)n2nc(C3=CCOCC3)nc2n1CC(=O)Nc1c(Cl)cc(C(F)(F)F)c2scnc12	7.29
CCc1c(N2CCN(C(=O)c3ncnc(C)c3O)CC2)c(=O)n2nc(-c3ccn4ncnc4c3)nc2n1CC(=O)Nc1ccc(C(F)(F)F)cc1Cl	7.02
CCc1c(N2CCN(C(=O)c3ncnc(C)c3O)CC2)c(=O)n2nc(-c3cccc4c3OCCO4)nc2n1CC(=O)Nc1c(Cl)cc(C(F)(F)F)c2c1CC2	7.24
CCc1c(N2CC[C@@H]3[C@@H]2CCCN3C(=O)c2ncnc(C)c2O)c(=O)n2nc(-c3ccc4c(c3)COC4)nc2n1CC(=O)Nc1ccc(C(F)(F)F)cc1Cl	7.55
CCc1c(N2CCN(C(=O)c3ncnc(C)c3O)CC2)c(=O)n2nc(-c3ccc4c(c3)COC4)nc2n1CC(=O)Nc1ccc(C(F)(F)F)c2c1CC2	7.55
CCc1c(N2CCN(C(=O)c3ccccc3NS(C)(=O)=O)CC2)c(=O)n2nc(C3=CCOCC3)nc2n1CC(=O)Nc1ccc(C(F)(F)F)cc1Cl	7.22

Data point: CCc1c(N2CCN(C(=O)c3ncnc(C)c3O)CC2)c(=O)n2nc(-c3ccc(C(=O)N4CCCC4)cc3)nc2n1CC(=O)Nc1ccc(C(F)(F)F)cc1Cl ; pIC50 = 7.64

For record CCc1c(N2CCN(C(=O)c3ncnc(C)c3O)CC2)c(=O)n2nc(-c3cnc4nc(C)oc4c3)nc2n1CC(=O)Nc1ccc(C(F)(F)F)cc1Cl the listed pIC50 is 7.28

For this compound ( CCc1c(N2CCN(C(=O)c3ncnc(C)c3O)CC2)c(=O)n2nc(C3=CCOCC3)nc2n1CC(=O)Nc1ccc(SC(F)(F)F)cc1Cl ), measured pIC50 is 7.52

Entry under test: CCc1c(N2CCN(C(=O)c3ncnc(C)c3O)CC2)c(=O)n2nc(-c3cc4c(cnn4C)cc3C)nc2n1CC(=O)Nc1ccc(C(F)(F)F)cc1Cl . Its pIC50 was 4.53

Entry CCc1c(N2CCN(C(=O)c3ncnc(N4CC(OC)C4)c3O)CC2)c(=O)n2nc(-c3ccc4c(c3)COC4)nc2n1CC(=O)Nc1ccc(C(F)(F)F)cc1Cl ; pIC50 = 9.00
